# SUBJECT_OF_TEST: T1, M10
# T1 construct: also called PD1 mutant M10
# MEASUREMENT_NOTES: scFv-phage ELISA
EXPERIMENTAL_READOUT: OD490
Just the number, please, no unit after it.

Known results for binders:
PD1-49B9 (antibody, V domains shown, scFv-phage in the screening ELISA; later whole IgG) VH: QMQLVESGGGLVQPGRSLRLSCAASGFTFEDYAMHWVRQPPGKGLEWVSSISWNSHNIAYADSVKGRFTISRDNSKNSLYLQMNSLRAEDTAVYYCSTSGLGVHAWGQGTMVTVSS VL: QSALTQPPSASGSPGQSVTISCTGTSSDVGGYNYVSWYQQHPGKAPKLMIYEVSKRPSGVPDRFSGSKSGNTASLTVSGLQPEDEADYYCSSFARNSNYVFGTGTKVTVL; 3.9
PD1-45D6 (antibody, V domains shown, scFv-phage in the screening ELISA; whole IgG in the other assays) VH: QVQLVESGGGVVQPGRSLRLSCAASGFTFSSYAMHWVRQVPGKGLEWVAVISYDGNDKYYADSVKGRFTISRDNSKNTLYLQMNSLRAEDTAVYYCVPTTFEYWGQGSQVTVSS VL: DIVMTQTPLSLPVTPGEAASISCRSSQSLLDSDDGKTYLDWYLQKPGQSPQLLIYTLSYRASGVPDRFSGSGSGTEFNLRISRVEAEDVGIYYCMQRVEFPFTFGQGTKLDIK; 3.9

Okay, next one:
May I ask what OD490 has been recorded for PD1-31F3 (antibody, V domains shown, scFv-phage in the screening ELISA; later whole IgG) VH: QVQLVQSGAEVKKPGSSVKVSCKASGGTFSSYAISWVRQAPGQGLEWMGGIIPLFSTAHSAQKFQGRVTITADESSSTAYMELSSLRSEDTAVYYCAKHKGLPFDWSPDGFDTWGQGTMVTVSS VL: QFVLTQPPSVSGAPGQRVIISCTGSSSNIGAGYDVHWYQQLPGTAPKVLIYGNSDRPSGVPDRFSASKSATSASLAITGLQAEDEADYYCQSYDSSLSGYVFGTGTKVTVL ?
3

These measurements were taken from patent US20190248900A1.
